The entries below come with measured AUC(0-inf) values attached.
procedure-details: in vivo
Parameters: species or system SD rats
measurement-conditions: rat, po, 15 mg/kg

| molecule | AUC(0-inf) (ng·h/mL) |
| --- | --- |
| COC(=O)c1ccc(OCCn2ccnc2)c(OC)c1 [Compound A methyl ester, reference compound] | 1600 |
| COc1cc(C(=O)OC(C)OC(C)=O)ccc1OCCn1ccnc1 (centres unmarked) | 3170 |
| COc1cc(C(=O)O)ccc1OCCn1ccnc1 [Compound A, reference compound] | 1720 |
| COc1cc(C(=O)OCCCCCC(=O)O)ccc1OCCn1ccnc1 | 3380 |
| COc1cc(C(=O)OCOC(=O)OC(C)C)ccc1OCCn1ccnc1 | 3000 |

Reference source for all entries: patent US20260285815A1
